B1: TOR1AIP2 (parent)
chain: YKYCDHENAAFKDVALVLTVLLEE

Variants of: B1
protocol.notes: protein stability index of a GFP-peptide fusion (GPS, HEK-293T) (PSI 1-6); higher = more stable;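 further: lentivirally expressed fusions sorted by FACS into six bins by GFP to DsRed ratio, PSI derived from sequencing read proportions per bin multiplied by bin number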
conditions: c terminus: a fixed tail appended
We'd kindly ask you to apply these protein stability index classes: low bin (below 2), mid bin (2 to below 3), high bin (3 or more)

seq	answer.label
YKYCDHENAACKDVALVLTVLLEE [F11C]	low bin
YKYCDHENAAFKDVALVLTVLLPE [E23P]	high bin
YKYCDHENAAAKDVALVLTVLLEE [F11A]	mid bin
YKYCDVENAAFKDVALVLTVLLEE [H6V]	mid bin
YKYCDHENAAFKDVALVSTVLLEE [L18S]	high bin
YKLCDHENAAFKDVALVLTVLLEE [Y3L]	mid bin
YKDCDHENAAFKDVALVLTVLLEE [Y3D]	mid bin
YKYCRHENAAFKDVALVLTVLLEE [D5R]	high bin
YKYCDHENAAFKDVALVLTVLSEE [L22S]	low bin
YKYCDHRNAAFKDVALVLTVLLEE [E7R]	mid bin
